Measured bioavailability, listed per entry for reference.
- test_name: Oral bioavailability in Han Wistar rat at 5 to 10 mg/kg by LC-MS/MS method
- Format: ADME, organism-based
- condition_set: in vivo

>  <structure_smiles>
CCn1c([C@@H](C)NS(=O)(=O)c2ccc(Cl)cc2)nc2ccc(C(F)(F)F)cc21

>  <bioavailability>
43%

$$$$
>  <structure_smiles>
CCn1c([C@@H](C)NS(=O)(=O)c2ccc(Cl)cc2)nc2ccccc21

>  <bioavailability>
5%

$$$$

----------
- target_under_test: Sphingosine 1-phosphate receptor 1 (Homo sapiens)
- Sequence (P21453 whole entry): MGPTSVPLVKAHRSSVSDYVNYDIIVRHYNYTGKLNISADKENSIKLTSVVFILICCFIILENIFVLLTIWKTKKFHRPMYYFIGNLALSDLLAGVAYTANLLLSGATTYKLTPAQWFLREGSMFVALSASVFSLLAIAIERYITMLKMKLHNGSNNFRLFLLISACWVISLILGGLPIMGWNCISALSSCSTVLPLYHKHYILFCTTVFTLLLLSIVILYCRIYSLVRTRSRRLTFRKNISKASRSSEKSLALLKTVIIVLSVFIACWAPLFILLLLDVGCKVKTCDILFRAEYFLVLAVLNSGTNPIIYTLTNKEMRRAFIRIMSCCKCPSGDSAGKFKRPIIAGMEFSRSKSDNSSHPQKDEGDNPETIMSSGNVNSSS
- test_name: Antagonist activity against human S1P1 receptor expressed in human U2OS cells co-expressing GFP assessed as inhibition of S1P-induced receptor translocation
pEC50: −log10 of the molar value.
Respond with true (1) for pEC50 values of 7 and above, false (0) for values below.

>  <compound>
CCCn1ncc(S(=O)(=O)N[C@H](C)c2nc3ccc(C(F)(F)F)cc3n2CC)c1C

>  <assigned_class>
false (0)

$$$$
>  <compound>
CCn1c([C@@H](C)NS(=O)(=O)c2ccc(Cl)cc2)nc2cc(CO)ccc21

>  <assigned_class>
false (0)

$$$$
>  <compound>
CCn1c([C@@H](C)NS(=O)(=O)c2ccc(Cl)cc2)nc2cc(N3CCOCC3)ccc21

>  <assigned_class>
false (0)

$$$$
>  <compound>
CCn1c([C@@H](C)NS(=O)(=O)c2ccccc2)nc2ccc(C(F)(F)F)cc21

>  <assigned_class>
true (1)

$$$$
>  <compound>
CCn1c([C@@H](C)NS(=O)(=O)c2ccc(C#N)cc2)nc2cnc(C(F)(F)F)cc21

>  <assigned_class>
true (1)

$$$$
>  <compound>
CCn1c(C(C)NS(=O)(=O)c2ccc(Cl)cc2)nc2ncccc21 (configuration not stated)

>  <assigned_class>
false (0)

$$$$
>  <compound>
CCn1c([C@@H](C)NS(=O)(=O)c2ccncc2)nc2ccc(C(F)(F)F)cc21

>  <assigned_class>
true (1)

$$$$
>  <compound>
CCn1c([C@@H](C)NS(=O)(=O)c2cccc(C#N)c2)nc2ccc(C(F)(F)F)cc21

>  <assigned_class>
true (1)

$$$$
>  <compound>
CCn1c([C@@H](C)NS(=O)(=O)c2cnc(C)n2C)nc2ccc(C(F)(F)F)cc21

>  <assigned_class>
false (0)

$$$$
>  <compound>
CCn1c(C(C)NS(=O)(=O)c2ccc(Cl)cc2)nc2cnccc21 (configuration not stated)

>  <assigned_class>
false (0)

$$$$
>  <compound>
CCn1c([C@@H](C)NS(=O)(=O)c2c(F)cc(F)cc2F)nc2ccc(C(F)(F)F)cc21

>  <assigned_class>
false (0)

$$$$
>  <compound>
CCn1c([C@@H](C)NS(=O)(=O)c2ccccn2)nc2ccc(C(F)(F)F)cc21

>  <assigned_class>
false (0)

$$$$
>  <compound>
CCn1c([C@@H](C)NS(=O)(=O)c2ccc(CC(C)C)cc2)nc2ccc(C(F)(F)F)cc21

>  <assigned_class>
false (0)

$$$$
>  <compound>
CCn1c([C@@H](C)NS(=O)(=O)c2cccnc2)nc2ccc(C(F)(F)F)cc21

>  <assigned_class>
true (1)

$$$$
>  <compound>
CCn1c([C@@H](C)NS(=O)(=O)c2cn(C)c(C)n2)nc2ccc(C(F)(F)F)cc21

>  <assigned_class>
false (0)

$$$$
>  <compound>
CCn1c([C@@H](C)NS(=O)(=O)c2cn(C)nc2C)nc2ccc(C(F)(F)F)cc21

>  <assigned_class>
false (0)

$$$$
>  <compound>
CCn1c([C@@H](C)NS(=O)(=O)c2ccc(Cl)cc2)nc2cc(C(N)=O)ccc21

>  <assigned_class>
false (0)

$$$$
>  <compound>
CCn1c([C@@H](C)NS(=O)(=O)c2ccc(Cl)cc2)nc2ccc(CN(C)C)cc21

>  <assigned_class>
false (0)

$$$$
>  <compound>
CCn1c([C@@H](C)NS(=O)(=O)c2ccc(F)cc2)nc2ccc(C(F)(F)F)cc21

>  <assigned_class>
true (1)

$$$$
>  <compound>
CCn1c([C@@H](C)NS(=O)(=O)c2ccc(NC(C)=O)c(C)c2)nc2ccc(C(F)(F)F)cc21

>  <assigned_class>
false (0)

$$$$
>  <compound>
CCn1c([C@@H](C)NS(=O)(=O)c2cnc(NC(C)=O)s2)nc2ccc(C(F)(F)F)cc21

>  <assigned_class>
false (0)

$$$$
>  <compound>
CCn1c([C@@H](C)NS(=O)(=O)c2ccc(C#N)nc2)nc2cnc(OC)cc21

>  <assigned_class>
true (1)

$$$$
>  <compound>
CCn1c(C(C)NS(=O)(=O)c2ccc(Cl)cc2)nc2ccncc21 (configuration not stated)

>  <assigned_class>
false (0)

$$$$
>  <compound>
CCn1c([C@@H](C)NS(=O)(=O)c2ccc(Cl)cc2)nc2ccccc21

>  <assigned_class>
true (1)

$$$$
>  <compound>
CCn1c([C@@H](C)NS(=O)(=O)c2ccc(C#N)cc2)nc2ccc(C(F)(F)F)cc21

>  <assigned_class>
true (1)

$$$$
>  <compound>
CCn1c([C@@H](C)NS(=O)(=O)c2cccc(Cl)c2)nc2ccc(C(F)(F)F)cc21

>  <assigned_class>
true (1)

$$$$
>  <compound>
CCn1c([C@@H](C)NS(=O)(=O)c2ccc(Cl)cc2)nc2ccc(CO)cc21

>  <assigned_class>
true (1)

$$$$
>  <compound>
CCn1c([C@@H](C)NS(=O)(=O)c2ccc(C#N)nc2)nc2cnc(C(F)(F)F)cc21

>  <assigned_class>
true (1)

$$$$
>  <compound>
CCn1ncc(S(=O)(=O)N[C@H](C)c2nc3ccc(C(F)(F)F)cc3n2CC)c1C

>  <assigned_class>
false (0)

$$$$
>  <compound>
CCn1c([C@@H](C)NS(=O)(=O)c2ccc(Cl)cc2)nc2ccc(S(C)(=O)=O)cc21

>  <assigned_class>
false (0)

$$$$
>  <compound>
CCn1c([C@@H](C)NS(=O)(=O)C2CCCC2)nc2ccc(C(F)(F)F)cc21

>  <assigned_class>
false (0)

$$$$
